Provide the reported % inhib of 125I-TSH binding at 0.01 µg/mL of each item.
tested_on: T1, TSHR coated onto tubes (human, UniProt P16473 21-764, limits assumed)
T1 construct: whole entry named; also called TSHR coated tubes; thyrotropin receptor
method_description: TSHR coated tubes, competitor 125I-TSH
Numbers only, in %.

binder: 9D33 IgG (antibody, V domains shown) VH: DVQIQQPGTELVKPGASVRLSCKASGYTFTTYWMHWVKQRPGQGLEWIGEIDPSDSYTNYNQKFKGKATLTVDKSSSTAYMHLSSLTSEDSAVYYCSRNYGSGYYFDYWGQGTTLTVSS VL: GVEMTQSPAIMSASPGEKVTMTCSASSSVSYMHWYQQKSGTSPKRWIYDTSKLASGVPARFSGSGSGTSYSLTISSMETEDAATYYCQQWSSNPWTFGGGTKLEIK
value: 8

binder: 16E5 IgG (antibody, V domains shown) VH: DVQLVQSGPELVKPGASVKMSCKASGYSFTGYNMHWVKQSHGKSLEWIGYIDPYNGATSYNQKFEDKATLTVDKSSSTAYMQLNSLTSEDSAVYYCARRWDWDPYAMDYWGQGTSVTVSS VL: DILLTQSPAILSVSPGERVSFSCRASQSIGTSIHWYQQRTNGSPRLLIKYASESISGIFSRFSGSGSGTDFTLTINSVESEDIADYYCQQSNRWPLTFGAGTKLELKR
value: 9

binder: 2B4 IgG (antibody, V domains shown) VH: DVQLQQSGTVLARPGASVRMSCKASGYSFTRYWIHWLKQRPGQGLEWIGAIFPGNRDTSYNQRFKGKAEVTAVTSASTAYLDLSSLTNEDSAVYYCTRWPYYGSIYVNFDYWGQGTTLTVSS VL: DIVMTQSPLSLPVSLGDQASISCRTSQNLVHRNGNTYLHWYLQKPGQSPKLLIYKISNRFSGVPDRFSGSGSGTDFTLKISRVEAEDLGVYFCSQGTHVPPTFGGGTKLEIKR
value: 13.5

binder: 14D3 IgG (antibody, V domains shown) VH: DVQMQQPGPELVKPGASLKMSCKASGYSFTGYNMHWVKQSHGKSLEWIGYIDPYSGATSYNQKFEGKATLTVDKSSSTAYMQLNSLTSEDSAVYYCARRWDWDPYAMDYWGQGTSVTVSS VL: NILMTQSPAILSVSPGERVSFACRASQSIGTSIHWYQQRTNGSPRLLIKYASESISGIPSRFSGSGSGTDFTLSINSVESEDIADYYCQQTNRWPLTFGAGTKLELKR
value: 4

Proceed to the following item.
Request: Input 17D2 IgG (antibody, V domains shown) VH: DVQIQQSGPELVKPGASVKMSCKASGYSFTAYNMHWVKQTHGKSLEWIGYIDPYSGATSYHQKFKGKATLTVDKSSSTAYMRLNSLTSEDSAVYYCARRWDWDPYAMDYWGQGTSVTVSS VL: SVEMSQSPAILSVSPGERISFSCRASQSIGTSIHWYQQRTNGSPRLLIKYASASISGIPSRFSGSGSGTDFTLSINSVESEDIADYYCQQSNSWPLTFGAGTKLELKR , output reported % inhib of 125I-TSH binding at 0.01 µg/mL.
Response: 3

The values you see were collected from patent US8840891.
